Values were extracted from patent US20250000991A1.

Target: T1, recombinant HIS-tagged cyno nectin-4 (Acro Biosystems Cat. No. NE4-C52H4) (cyno, UniProt A0A2K5WES1 32-349)
T1 construct: Bought protein; HIS tag not described
T1 sequence: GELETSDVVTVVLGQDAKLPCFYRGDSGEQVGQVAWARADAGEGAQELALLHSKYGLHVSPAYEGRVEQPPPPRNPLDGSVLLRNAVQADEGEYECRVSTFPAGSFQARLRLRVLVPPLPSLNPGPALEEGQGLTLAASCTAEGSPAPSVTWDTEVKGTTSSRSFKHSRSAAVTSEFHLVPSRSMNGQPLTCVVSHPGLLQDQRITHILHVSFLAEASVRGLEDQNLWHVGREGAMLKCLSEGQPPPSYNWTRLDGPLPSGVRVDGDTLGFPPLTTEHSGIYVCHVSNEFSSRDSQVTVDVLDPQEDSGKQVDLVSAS
Experiment: SPR Biacore 8K+, ADC captured via anti-human Fc, nectin-4 analyte, 37 C;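 also: Nectin-4 injected over captured ADC at 0 to 600 nM for 2 min association, then 10 min dissociation, with a reference flow cell lacking ADC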
Measured Quantity: kon

{"columns": ["Binder", "Value Measured"],
 "data": [
  ["Ab1a ADC (Ab1a conjugated as in Formula XI, DAR of 8) (antibody, human IgG1, kappa, L234A L235A, V domains shown, camptothecin analog linker-payload of Formula XI on cysteine thiols after full reduction, DAR of 8 per antibody; positions not given, Antibody-drug conjugate of Ab1a; also called Ab1a (ADC column)) VH: QVQLVQSGAQVKKPGASVKVSCKASGYTFTGYYIHWVRQAPGQGLEWMGWINPNSGGTNYAQKFQGRVTMTRDTSISTAYMELSRLRSDDTAVYFCAREDWDFDYWGQGTLVTVSS VL: EIVLTQSPGTLSLSPGERATLSCRTSQSVSSSYLAWYQQKPGQAPRLLIYGASNRATDIPDRFSGSGSGTDFTLTINRLEPEDFAVYYCQQYGSSPITFGQGTRLEIKR", "310000 M⁻¹ s⁻¹"]
]}
